All values here come from PubChem BioAssay (NCI).

Some molecules, each annotated with its measured growth.
- Test system: IGROV1 ovarian
- TEST SUMMARY: NCI-60 one-dose screen, 48 h (100 = growth as untreated, 0 = no growth, -100 = all killed)
- MEASUREMENT CONDITIONS: 10 µM
Compounds without any hit were thinned out: in the full panel of roughly 83,000, 20% have a hit.
API: value field is a number in %; no unit string.

// worked examples, growth included
{"columns": ["MOLECULE", "growth / %"],
 "data": [
  ["O=C1Nc2cc(Cl)ccc2/C1=C/c1cccc(OCc2ccccc2)c1", 11.1],
  ["O=C(Nc1ccc(I)cc1)Nc1nc2ccc([N+](=O)[O-])cc2s1", -95.7],
  ["O=S(=O)(c1ccc(Cl)cc1)c1nc(-c2ccccc2)oc1S(=O)(=O)c1ccc(Cl)cc1", 91.7]
]}

Q) Write down the reported growth of COc1cccc(-c2nn(-c3ccccc3)cc2-c2ccnc(NCCCNC(=O)Nc3ccc(F)cc3)c2)c1 , test system: IGROV1 ovarian.
A) 15.8

Q) Repeat with Cc1ccc(-c2ccc(SCC(=O)Nc3ccc(Cl)c(C(F)(F)F)c3)nn2)cc1
A) 30.1

Q) And CCOC(=O)C(Cc1ccccc1)N1C(=O)/C(=C/N2N=C(c3ccc(OC)cc3)CC2c2ccc3ccccc3c2)SC1=S (configuration not stated) ?
A) 13

Q) What about O=C(Cc1ccc2c(c1)CN(C1CCC(=O)NC1=O)C2=O)NCCc1ccccc1 (configuration not stated) ?
A) 2.99

Q) Same question for COc1ccccc1[C@H]1C(C(=O)c2ccc(O)cc2)C2(N[C@@H]1c1ccccc1)C(=O)Nc1ccc(Br)cc12 (some centres not stated) please.
A) 19.2

Q) Lookup C#CCNC(=O)CCC(=O)OC[C@]12CC[C@@H](C(=C)C)[C@@H]1C1CC[C@@H]3[C@@]4(C)CCCNC(C)(C)[C@@H]4CC[C@@]3(C)[C@]1(C)CC2 (some centres not stated)
A) -3.31

Q) Query CC(=O)NCC1=C(C)C=C2C(=O)[C@](C)(O)C3(CC3)C(C)=C21 next
A) -39.3

Q) COc1cc(/C=C/C(=O)c2ccc(S(=O)(=O)NCCNc3nc(Nc4ccc(F)cc4)nc(N(C)C)n3)cc2)cc(OC)c1OC , same question.
A) -48.9

Q) Let us now turn to Cc1cc(C)nc(/N=C(\N)Nc2ccc(S(=O)(=O)Nc3nc(C)cc(C)n3)cc2)n1
A) 106

Q) One more molecule: O=c1c2ccccc2nc(COc2ccccc2)n1/N=C/c1ccc(F)cc1
A) 105

Q) Subsequent entry: O=C(CSc1nnc(-c2c[nH]c3ccccc23)n1-c1ccccc1)Nc1ccc(C(=O)/C=C/c2cccc([N+](=O)[O-])c2)cc1
A) 82.9

Q) Next up: COc1ccc(C(=O)Nc2ccc(-c3ccc4c(c3)NC(=O)/C4=C\c3ccc[nH]3)cc2)cc1
A) 65.9

Q) Same lookup for CC(=O)OC[C@@]1(C)C2CC[C@]3(C)C(CC=C4C5CC(C)(C)CC[C@]5(C(=O)Nc5ccccc5)CC[C@]43C)[C@@]2(C)C[C@@H](OC(C)=O)[C@@H]1OC(C)=O (some centres not stated) , please.
A) 45.1

Q) Okay, and COc1ccc([C@H]2C(C(=O)c3ccc(Cl)cc3)C3(N[C@@H]2c2ccccc2)C(=O)Nc2ccc(Br)cc23)cc1 (some centres not stated) ?
A) 7.23
